tgt: T1, UNK ZnF1-6 (called full-length) (human, UniProt Q9C0B0 30-357)
T1 sequence: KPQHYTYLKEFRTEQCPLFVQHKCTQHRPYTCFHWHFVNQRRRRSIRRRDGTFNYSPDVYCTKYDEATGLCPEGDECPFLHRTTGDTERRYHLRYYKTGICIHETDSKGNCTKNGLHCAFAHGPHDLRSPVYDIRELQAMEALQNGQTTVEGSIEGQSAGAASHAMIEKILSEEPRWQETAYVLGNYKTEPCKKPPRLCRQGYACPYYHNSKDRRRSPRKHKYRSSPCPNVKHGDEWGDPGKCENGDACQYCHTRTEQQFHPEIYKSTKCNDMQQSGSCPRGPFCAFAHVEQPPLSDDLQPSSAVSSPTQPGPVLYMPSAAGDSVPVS
assay-method-text: nsRBNS (natural sequence RNA bind-n-seq); RBNS binding buffer (assumed for nsRBNS): 25 mM Tris pH 7.5, 150 mM KCl, 3 mM MgCl2, 0.01% Triton X-100, 500 ug/ml BSA, 20 U/ml SUPERase-In, 4 C; UNK is unkempt and MSI1 is Musashi-1; names of the RNAs are library labels; protein concentration not given here; high values mean tight binding
Over roughly 5,800 sequences, “enrichment r” has its median near 0.68; the highest 2% begin near 11. Only a selection was taken, and the highest values are over-represented in it overall.
# binning rule on binding signal: bottom bin: < 1 enrichment R; middle bin: ≥ 1 enrichment R and < 6 enrichment R; top bin: ≥ 6 enrichment R

Request: Which bin, given its binding signal, does chr10:104129887:104130138:-|three_prime_utr|ENSG00000197748|control|control|control (ssRNA) RNA: GGGAGUUCUACAGUCCGACGAUCAAAAAAUCAUUUCAUUUGGGUAAAAUGAUUUCCUUUUCUUUCUUACUGGGAAAUUGAAGUAGCAUGUCCUCUGAGUUGCAUGUUUUAGAUAAAAAAUUGUUUAAUUUUAGCCUUAAUUGUCAACAGAGGAUUGAGCAUCA occupy?
Result: top bin

Request: Class (by measured binding signal) for chr21:34788506:34788607:-|3pUTR|ENSG00000159216|msi1|FALSE|unique (ssRNA) RNA: GGGAGUUCUACAGUCCGACGAUCUUGUUAAUGCCUAUAACUUUUUUUCAAUUUUUUUGUGUGUGUUUCUAAGGACUUUUUCUUAGGUUUGCUAAAUACUGUAGGGAAAAAAAUGCUUCUUUCUACUUUGUUUAUUUUAGACUUCAACAGAGGAUUGAGCAUCA
Result: middle bin

Request: Band for the recorded binding signal of chr6:142752714:142752806:-|3pUTR|ENSG00000010818|msi1_unk|total|mutant (ssRNA) RNA: GGGAGUUCUACAGUCCGACGAUCUUUUCUUUACUUUGCUUAUAUUCUUAUAAGCAUUUUUCCGCAGUAAUUUGUACAUAUUUCCGAAUUUGUGUAUCUGCUUUGUAAUAAAUGUAAUUUCUUUCCUUUUUUGGACACUUGGAUCAACAGAGGAUUGAGCAUCA ?
Result: bottom bin

Request: Tag the class for chr15:34978960:34979061:-|3pUTR|ENSG00000198146|msi1|FALSE|unique (ssRNA) RNA: GGGAGUUCUACAGUCCGACGAUCGCCCUCUGUAUCCAUGUACUCUGCAUCUGUGGAUUAAACCAAUUGCAGAUCAAAAAUAUUAGAAAAAAUAAAAAUAAUACAAAUAAAAAUACAGUAUAACAGUUAUUUAAAUAGCAUUUACAACAGAGGAUUGAGCAUCA
Result: top bin

Request: Class? Entry: chr7:157269180:157269282:+|3pUTR|ENSG00000009335|unk|total|mutant (ssRNA) RNA: GGGAGUUCUACAGUCCGACGAUCAUUUCCGGUUGUUUUAUGUUGAAUGUUCUAUAUCUUAUCCGUUAAUUUGUAUAUUUUAUCCGUAUUUUGGAAACCGCAUAUCUGAGACUGAAGAGAAAUUGACAAUUCACUUAUUUGUGGCAACAGAGGAUUGAGCAUCA
Result: bottom bin

Request: Into which bin does this binder go? chr10:62095068:62095169:+|3pUTR|ENSG00000150347|msi1|FALSE|unique (ssRNA) RNA: GGGAGUUCUACAGUCCGACGAUCCCAUUUGCUUCAAUUAAUUAUUUACCUUCCUGUGGAAUAAUAUAUAUAUAUAUAUUUAAUAGAACCAUAGAUAGACUAGUAGAAUUUAGAUUAUAAAUGUGUGAGUGCAGAUUAUCCUGCCAACAGAGGAUUGAGCAUCA
Result: top bin

Request: Please classify: chr17:29548703:29548809:+|3pUTR|ENSG00000160551|unk|FALSE|bound_elsewhere (ssRNA) RNA: GGGAGUUCUACAGUCCGACGAUCAGCACUUGUGAGUGAAAAAUCAUGUAAUUAUCUGUAAAUAUGUAGCUAACAAAUUGACCUAGUUUCUGUAUUUUUUUGUUUUUGUACUAAAGUUUAUAGGUCUGUGCCAGCUAGAGAGAACAACAGAGGAUUGAGCAUCA
Result: top bin

Request: Would you mind sorting chr9:72354534:72354635:-|3pUTR|ENSG00000107372|msi1|FALSE|unique (ssRNA) RNA: GGGAGUUCUACAGUCCGACGAUCGUCCUAGUUUUUACUUUUAUUCUUAAAGCAUUCAGUUUUGCUUUCAAUUUUAUGUACCUUAGUUCUGAGUUAGACCUGCAGAUGUGUACAGAUAGUUCAUAUUUAUGUAUUGCACAUAAUCAACAGAGGAUUGAGCAUCA into the appropriate category?
Result: top bin

Request: // bin(item) where item = chr10:95311796:95311897:-|3pUTR|ENSG00000095637|unk|FALSE|unique (ssRNA) RNA: GGGAGUUCUACAGUCCGACGAUCCAGACAUAGAUUUUUCUGUUCAUUUAUUUUUCUUCAUUGCAGUGGAUUGAUUUGAUAAAUAGAUGUGUUGAAUUACUACAUUUGCUGUACAUAUUAUUUAAUAAACUUUAUUCAGAAUUGCAACAGAGGAUUGAGCAUCA
Result: middle bin

Request: Which of the defined bands does the recorded binding signal of chr1:3780741:3780842:-|3pUTR|ENSG00000130764|unk|total|mutant (ssRNA) RNA: GGGAGUUCUACAGUCCGACGAUCCCAAGCCGCUGGGACUACAGGUGUGUGCCACUAAGCUCAGCUAAUUUUUGUAUUUUCCGCCGAGACGGGGUUUCACCAUUUUGACCAGGAUGGUCUUGAUCUCUUGACCUCAUGAUCUGUCAACAGAGGAUUGAGCAUCA sit within?
Result: bottom bin

Request: Using the reported binding signal, which band applies to chr10:62095068:62095169:+|3pUTR|ENSG00000150347|msi1|total|mutant (ssRNA) RNA: GGGAGUUCUACAGUCCGACGAUCCCAUUUGCUUCAAUUAAUUAUUUACCUUCCUGUGGAAUAAUAUAUAUAUAUAUAUUUAACCGAACCACCGACCGACCCGCCGAAUUCCGAUUAUAAAUGUGUGAGUGCAGAUUAUCCUGCCAACAGAGGAUUGAGCAUCA ?
Result: middle bin

Request: // return the class label for chr4:138167974:138168075:-|3pUTR|ENSG00000151012|msi1|FALSE|unique (ssRNA) RNA: GGGAGUUCUACAGUCCGACGAUCCACAAAAUCUGCAUUGUCCAUGUGAGUAAAGUAAAAUAAUUCCUGUUAUUUUUUUCUGUUAGAAAUAAGUAUGGAGGAUAUGUUUUUAAAAAUUUAUGAGUUAAUUGAAAUAUCCAUAUACAACAGAGGAUUGAGCAUCA
Result: middle bin

Request: Could you tell me which band chr2:45599705:45599806:-|CDS|ENSG00000068784|msi1|total|mutant (ssRNA) RNA: GGGAGUUCUACAGUCCGACGAUCCUCAUAUGUUCUCUUUGUGGUUUGACCGAACCGCUCUGUGGCUAUUGCUGAUACUGCUUCCGAAGACAGAAAAAAUAAAUUGGAUACUGUACAGACUCUGAAAACAGCCAAGACAAAACACAACAGAGGAUUGAGCAUCA belongs to?
Result: bottom bin
